Reported pIC50 values, Acetylcholinesterase (AChE) (Electrophorus electricus).
One number for each entry, as −log10 of the molar value.

{"columns": ["Smiles record", "pIC50"],
 "data": [
  ["CN(C)c1cccc(CCC(=O)c2cc(O)ccc2N(C)C)c1", 4.09]
]}

Tell us which pIC50 value is on record for CCOc1cc(C(=O)O)c(C(=O)CCc2ccccc2)c(N(C)C)c1 4.52

###

Reported pIC50 for target or system beta-secretase (BACE-1) (Homo sapiens, UniProt P56817), by entry.
Give bare numbers, as −log10 of the molar value.

{"columns": ["Smiles record", "Property measured", "Reported measurement"],
 "data": [
  ["CCOc1cc(C(=O)O)c(C(=O)CCc2ccccc2)c(N(C)C)c1", "pIC50", 5.73]
]}

State its pIC50 for this compound: CN(C)c1cccc(CCC(=O)c2cc(O)ccc2N(C)C)c1 5.45
